The measurements presented in this section are drawn from PubChem BioAssay (NCI).

# PROTOCOL TEXT: NCI Yeast Anticancer Drug Screen. Data for the rad52 strain (AID 147)
# ASSAY CONTEXT: S. cerevisiae rad52 mutant growth inhibition; at 1.2 µM; active compounds read high
Compounds without any hit were thinned out: in the full panel of roughly 79,000, 15% have a hit.
Record true whenever growth inhibition is at 20% or higher; record false when lower.

Ask: For this molecule, is measured growth inhibition 20% or higher? "c1ccc2c(c1)Oc1cccc3cccc-2c13"
Result: false

Ask: Hi team, for "CCC#CCCCOC(=O)c1cc([N+](=O)[O-])cc([N+](=O)[O-])c1" , is the recorded growth inhibition at or above 20%?
Result: false

Ask: Please tell me: is the molecule "Nc1nc(-c2cccnc2)cc(-c2cc(-c3cccnc3)nc(N)n2)n1" at or over 20% in terms of growth inhibition?
Result: false

Ask: Dear colleague, could you confirm whether "O=Cc1cccc2ccc3ccccc3c12" has growth inhibition at or above 20%?
Result: false

Ask: Exam item: decide whether the reported growth inhibition for "CCN(CC)[P+](c1ccccc1O)(N(CC)CC)N(CC)CC" is at least 20%.
Result: false

Ask: Would you say "Cc1ccc2[nH]c3c(C)c4cc[n+](C)cc4c(C)c3c2c1" shows growth inhibition at minimum 20%?
Result: true

Ask: Check the entry CN1c2ccc(Cl)cc2C(=O)NC1c1ccc([N+](=O)[O-])s1 (stereo not drawn) : does growth inhibition equal or exceed 20%?
Result: true

Ask: Could you verify whether the entry "CCc1ccc(NS(=O)(=O)c2ccccc2)c([N+](=O)[O-])c1" shows growth inhibition of no less than 20%?
Result: false

Ask: Given the entry "Cc1ccc(NC(=O)/C(Cl)=C(\Cl)C(=O)O)cc1C" , answer whether its growth inhibition meets or surpasses 20%.
Result: false

Ask: Hi team, for "Cc1ccc(N)c(S)c1" , is the recorded growth inhibition at or above 20%?
Result: false

Ask: Confirm if growth inhibition reported for the molecule O=C1OC(=O)C2CCCC3CCCC1C32 (stereo not drawn) is 20% or above.
Result: true

Ask: Could you please find out whether "CCC(=O)OCCn1c2nc(=O)[nH]c(=O)c-2nc2cc(C)c(C)cc21" has growth inhibition that meets 20% or exceeds it?
Result: false

Ask: Exam item: decide whether the reported growth inhibition for "COc1ccc2nc3c([N+](=O)[O-])ccc(NCCN(C)C)c3c(NCCN(C)C)c2c1" is at least 20%.
Result: false

Ask: Hi, just wondering whether "O=c1c2ccccc2ncn1COCc1ccccc1" shows growth inhibition of 20% or higher.
Result: false

Ask: Can "Cc1ccc(S(=O)(=O)NCCSS(=O)(=O)c2ccc(C)cc2)cc1" be said to have growth inhibition at or above 20%?
Result: false

Ask: Is it the case that CCC(C(=O)O)C1=C(c2ccccc2)CCc2ccccc21 (stereo not drawn) has growth inhibition reaching or exceeding 20%?
Result: false

Ask: Could you verify whether the entry "CCC/C(Cl)=N\OC(=O)Nc1ccc(Br)cc1" shows growth inhibition of no less than 20%?
Result: true

Ask: Could you verify whether the entry "Cc1nc(-[n+]2nc(-c3ccncc3)nn2-c2ccccc2)sc1C" shows growth inhibition of no less than 20%?
Result: false

Ask: Hi team, for "CCNc1nnc(CSc2nc(-c3ccccc3)c(-c3ccccc3)[nH]2)s1" , is the recorded growth inhibition at or above 20%?
Result: false

Ask: // inclusive: growth inhibition at least 20%? input: "COc1ccc(NC(=S)N/N=C(\c2ccccc2)c2ccccn2)cc1"
Result: false

Ask: Please indicate if the recorded growth inhibition for "COc1ccc(/C=C/C(=O)C(C)(C)Br)cc1" meets or exceeds 20%.
Result: true

Ask: In plain terms: is recorded growth inhibition at least 20% for "O=C(OCC=C1CCCC1)c1cc([N+](=O)[O-])cc([N+](=O)[O-])c1" ?
Result: false

Ask: Record "Cc1c(Cl)ccc2c1S(=O)(=O)c1cccc(Cl)c1-2" ; criterion: growth inhibition no lower than 20%. Met?
Result: false

Ask: In plain terms: is recorded growth inhibition at least 20% for CC1C(NNc2ccccc2)Oc2cc3c(cc2C1c1ccccc1O)OCO3 (stereo not drawn) ?
Result: true

Ask: # check: growth inhibition of OCC(Cn1cncn1)(c1ccc(F)cc1F)n1cncn1 (stereo not drawn) is greater than or equal to 20%
Result: true

Ask: Could you please find out whether "CC(C)[N+]([O-])(CCCNc1c2ccccc2nc2cccc([N+](=O)[O-])c12)C(C)C" has growth inhibition that meets 20% or exceeds it?
Result: true

Ask: Quick check: does "O=C(O)c1ccccc1-c1ccccc1C(=O)Nc1ccc2c(c1)Cc1ccccc1-2" have growth inhibition greater than or equal to 20%?
Result: false

Ask: Does COc1cc(C2C3=C(COC3=O)Oc3cc4c(cc32)OCO4)ccc1O (stereo not drawn) have a reported growth inhibition of at least 20%?
Result: false

Ask: Form field: growth inhibition at least 20%? Entry: "CC(=O)N/N=C/C(C)(C)C(C)(C)/C=N/NC(C)=O"
Result: false

Ask: Would you say "CO[C@H]1C[C@](C)(O)Cc2cc3c(c(O)c21)C(=O)c1c(O)cc2c(c1C3=O)O[C@@H]1O[C@@]2(C)[C@H](O)[C@@H](N(C)C)[C@@H]1O" shows growth inhibition at minimum 20%?
Result: false

Ask: Reported growth inhibition at or above 20%? "Cc1nc(-c2ccccc2)c(-c2ccccc2)s1"
Result: true

Ask: Determine whether measured growth inhibition meets or exceeds 20% for CC(CC(C)(C)[N+](C)(C)C)[N+](C)(C)C (stereo not drawn)
Result: false

Ask: Quick check, growth inhibition >= 20%? "O=[N+]([O-])c1ccc(=S)[nH]c1"
Result: false
